Procedure Details: Wild-type mouse plasma stability
Format: in vitro ADME
Condition Context: 37°C, up to 6 h, acetonitrile quench, LC-MS/MS, value given in h, read-out: Stability half-life, Mouse WT (converted)
Non-standard residues stand in square brackets, D forms with d. Residues, ends and D or L forms follow the SMILES beside them. *: point of attachment. Trp(6-Cl) = N[C@@H](Cc1c[nH]c2cc(Cl)ccc12)C(=O)O; Pip = O=C(O)[C@@H]1CCCCN1; ClAc = O=C(CCl)*
Readout Type: half-life at 1 μg/mL

Query block: I am curious: what half-life at 1 μg/mL value has been reported for CNC(=O)[C@H](Cc1c[nH]c2ccccc12)NC(=O)[C@@H]1CCCCN1C(=O)[C@H](Cc1c[nH]c2cc(Cl)ccc12)NC(=O)CCl [164B8] (ClAc-[Trp(6-Cl)]-[Pip]-Trp-NHMe) ?
Result block: ~4.5 h
